Target: Human V1b receptor (Homo sapiens (Human))
Experiment: Binding Test for V1b Receptor ([3H]AVP, crude membrane preparation of 293FT cells)
Details: inhibition of [3H]AVP binding (0.4 to 1 nmol/L), room temperature, 60 minutes
pIC50: −log10 of the molar value.
value.type: pIC50

Would you please look over these solved cases?
Exercise: # lookup: pIC50 of COc1cc(-n2c(CC(=O)NC(C)(C)C)nn(-c3ccc(CCN4C5CCC4COC5)cc3)c2=O)ccc1F
Solution: 8.15

Exercise: # lookup: pIC50 of COc1cc(-c2nc(-c3ccc(CCN4CCOCC4)cc3)cn2CC(=O)NC(C)C)ccn1
Solution: 6.00 to 7.00

Exercise: # lookup: pIC50 of CCN(CCOC)CCc1ccc(-c2cn(CC(=O)NC(C)C)c(-c3ccc(F)c(OC)c3)n2)cc1
Solution: 6.00 to 7.00

New cases:
Exercise: # lookup: pIC50 of CC(C)NC(=O)Cn1cc(-c2ccc(OCCN3CCCCC3)cc2)nc1-c1cccc(Cl)c1
Solution: 6.00 to 7.00

Exercise: # lookup: pIC50 of CC(C)NC(=O)Cc1cn(-c2ccc(CCN3CCCCC3)cc2)nc1-c1cccc(Cl)c1
Solution: 7.89

Exercise: # lookup: pIC50 of CC(C)NC(=O)Cc1nn(-c2ccc(CCN3C(C)COCC3C)cc2)c(=O)n1-c1cccc(Cl)c1 (centres unmarked)
Solution: 6.00 to 7.00

Exercise: # lookup: pIC50 of CC(C)NC(=O)Cn1cc(-c2ccc(CCN3CCOCC3)cc2)nc1-c1ccc(F)c(Cl)c1
Solution: 9.00

Exercise: # lookup: pIC50 of CCN(CC)CCc1ccc(-c2cn(CC(=O)NC(C)C)c(-c3ccc(F)c(OC)c3)n2)cc1
Solution: 7.00 to 8.00

---

Target: Human V1b receptor (Homo sapiens (Human), UniProt P47901)
Sequence (P47901 whole entry): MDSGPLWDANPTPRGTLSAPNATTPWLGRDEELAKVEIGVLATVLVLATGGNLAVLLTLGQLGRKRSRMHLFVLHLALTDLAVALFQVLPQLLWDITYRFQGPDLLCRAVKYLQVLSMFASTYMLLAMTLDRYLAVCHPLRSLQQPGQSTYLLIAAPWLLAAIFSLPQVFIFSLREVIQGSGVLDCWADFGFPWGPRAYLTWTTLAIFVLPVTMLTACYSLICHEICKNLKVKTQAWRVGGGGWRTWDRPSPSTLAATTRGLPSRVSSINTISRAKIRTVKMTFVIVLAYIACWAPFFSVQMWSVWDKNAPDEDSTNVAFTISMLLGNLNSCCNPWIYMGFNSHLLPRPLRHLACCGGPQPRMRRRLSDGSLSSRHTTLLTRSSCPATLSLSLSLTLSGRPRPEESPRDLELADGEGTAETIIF
Test: Measurement of V1b Receptor Antagonistic Activity (AVP-induced Fluo-4 fluorescence in CHO cells, FDSS)
Type: cell-based
Settings: inhibition of the response to AVP 2.5 nmol/L, CHO cells stably expressing human V1b receptor
Experimental: Measurement of V1b Receptor Antagonistic Activity CHO cells (ATCC) so modified as to express human V1b receptor in a stable manner were cultured in Ham's F-12 medium (containing 10% FBS and 0.5 mg/mL Geneticin). […] After the incubation, fluorescence intensity levels were measured and AVP added by means of FDSS (Hamamatsu Photonics K.K.); AVP was added to give a final concentration of 2.5 nmol/L at the time of assaying. […]
value.type: IC50 (nM)

Exercise: # lookup: IC50 of CC(C)(C)NC(=O)Cc1nn(-c2ccc(CCN3C4CCC3COC4)cc2)c(=O)n1-c1cccc(Cl)c1 [Example D-14]
Solution: 12

1 = CC(C)NC(=O)Cn1cc(-c2ccc(CCN3CCOCC3)cc2)nc1-c1cccc(Cl)c1 [Example A-02]
2 = CC(C)NC(=O)Cc1oc(-c2ccc(CCN3CC4(COC4)C3)cc2)nc1-c1cccc(Cl)c1 [Example C-12]
Exercise: // returns 1 or 2 , whichever has the lower IC50 Lab log: write the label of the selected item as the result.
Solution: 1
(1: 3.2 nM, 2: 32 nM)

---

Biological target: Human V1b receptor (Homo sapiens (Human))
Assay: Binding Test for V1b Receptor ([3H]AVP, crude membrane preparation of 293FT cells)
Settings: inhibition of [3H]AVP binding (0.4 to 1 nmol/L), room temperature, 60 minutes
value.type: IC50 (nM)

Exercise: # lookup: IC50 of COc1cccc(-c2nc(-c3ccc(CCN4CCOCC4)c(F)c3)nn2CC(=O)NC(C)C)c1
Solution: 6.9

a = CC(C)NC(=O)Cc1nc(-c2ccc(CCN3CC4(COC4)C3)cc2)sc1-c1cccc(Cl)c1
b = COc1cc(-n2c(CC(=O)NC(C)(C)C)nn(-c3ccc(CCN4CCOCC4)cc3)c2=O)ccc1F
c = CC(C)NC(=O)Cc1nn(-c2ccc(CC(C)N3CCOCC3)cc2)c(=O)n1-c1cccc(Cl)c1 (stereo not drawn)
Exercise: Task for the reader: rank each entry by its IC50, from the minimum upward. Your answer should be the labels, listed in the requested order.
Solution: b, c, a

---

Target: UniProtKB P47901
Test: Binding Test for V1b Receptor ([3H]AVP, crude membrane preparation of 293FT cells)
Conditions: inhibition of [3H]AVP binding (0.4 to 1 nmol/L), room temperature, 60 minutes
pIC50: −log10 of the molar value.
value.type: pIC50

I = CC(C)NC(=O)Cc1nc(-c2ccc(CCN3CCOCC3)cc2)nn1-c1cccc(Cl)c1 [Example C-21]
II = CC(C)NC(=O)Cn1c(-c2cccc(Cl)c2)cn(-c2ccc(CCN3CCOCC3)cc2)c1=O [Example C-19]
Exercise: Short answer wanted: higher pIC50, I or II ? Lab log: write the label of the selected item as the result.
Solution: II

---

Molecular target: Human V1b receptor (Homo sapiens (Human))
Test: Binding Test for V1b Receptor ([3H]AVP, crude membrane preparation of 293FT cells)
Conditions: inhibition of [3H]AVP binding (0.4 to 1 nmol/L), room temperature, 60 minutes
value.type: IC50 (nM)

Exercise: # lookup: IC50 of CC(C)NC(=O)Cc1nn(-c2ccc(CCN3C4CCC3COC4)cc2)c(=O)n1-c1ccc(F)c(Cl)c1 [Example D-27]
Solution: 5.3

I = COc1cc(-c2nc(-c3ccc(CCN4CCCC(OC)C4)cc3)cn2CC(=O)NC(C)C)ccc1F (stereo not shown) [Example A-18]
II = COc1cc(-c2nc(-c3ccc(CCN4CCCOCC4)cc3)cn2CC(=O)NC(C)C)ccc1F [Example A-23]
Exercise: Short answer wanted: higher IC50, I or II ? Lab log: write the label of the selected item as the result.
Solution: I
(I: 19 nM, II: 11 nM)

---

Biological target: Human V1b receptor (Homo sapiens (Human), UniProt P47901)
Test: Binding Test for V1b Receptor ([3H]AVP, crude membrane preparation of 293FT cells)
Details: inhibition of [3H]AVP binding (0.4 to 1 nmol/L), room temperature, 60 minutes
Below, each entry is listed with its recorded pIC50.
Reminder that pIC50 means the negative base-10 logarithm of the concentration expressed in mol/L.

Would you please look over these solved cases?
Exercise: I'm curious: which pIC50 was measured for COc1cc(-n2c(CC(=O)NC(C)(C)C)nn(-c3ccc(CCN4C5CCC4COC5)cn3)c2=O)ccc1F [Example D-12] tested on Human V1b receptor (Homo sapiens (Human), UniProt P47901)?
Solution: 8.15

Exercise: I'm curious: which pIC50 was measured for CC(C)NC(=O)Cc1nn(-c2ccc(CC(C)N3C4CCC3COC4)cn2)c(=O)n1-c1cccc(Cl)c1 [Example D-34] tested on Human V1b receptor (Homo sapiens (Human), UniProt P47901)?
Solution: 8.48

New cases:
Exercise: I'm curious: which pIC50 was measured for COc1cc(-c2nc(-c3ccc(CCN4CCC(C)C4)cc3)cn2CC(=O)NC(C)C)ccc1F (stereo not shown) [Example A-21] tested on Human V1b receptor (Homo sapiens (Human), UniProt P47901)?
Solution: 8.49

---

Molecular target: Human V1b receptor (Homo sapiens (Human))
Experiment: Measurement of V1b Receptor Antagonistic Activity (AVP-induced Fluo-4 fluorescence in CHO cells, FDSS)
Format: cell-based
Details: inhibition of the response to AVP 2.5 nmol/L, CHO cells stably expressing human V1b receptor
value.type: IC50 (nM)

Would you please look over these solved cases?
Exercise: I'm curious: which IC50 was measured for CC(C)NC(=O)Cc1nn(-c2ccc(CC(C)N3C4CCC3COC4)cc2)c(=O)n1-c1cccc(Cl)c1 (stereo not shown) tested on Human V1b receptor (Homo sapiens (Human))?
Solution: 0.65

Exercise: I'm curious: which IC50 was measured for CC(C)(C)NC(=O)Cc1nn(-c2ccc(CCN3CCOCC3)cc2)c(=O)n1-c1cccc(Cl)c1 tested on Human V1b receptor (Homo sapiens (Human))?
Solution: 13

P = CC(C)NC(=O)Cn1nc(-c2ccc(CCN3CCOCC3)cc2)nc1-c1cccc(Cl)c1
Q = CC(C)NC(=O)Cc1nn(-c2ccc(CCN3CCOCC3)cc2)c(=O)n1-c1cccc(Cl)c1
Exercise: // returns P or Q , whichever has the lower IC50 Lab log: write the label of the selected item as the result.
Solution: P

---

Biological target: Human V1b receptor (Homo sapiens (Human))
Assay: Binding Test for V1b Receptor ([3H]AVP, crude membrane preparation of 293FT cells)
Conditions: inhibition of [3H]AVP binding (0.4 to 1 nmol/L), room temperature, 60 minutes
value.type: IC50 (nM)

Would you please look over these solved cases?
Exercise: # lookup: IC50 of COc1cc(-n2c(CC(=O)NC(C)C)nn(-c3ccc(CCN4C5CCC4COC5)c(OC)c3)c2=O)ccc1F [Example D-41]
Solution: 2.7

Exercise: # lookup: IC50 of COc1cccc(-c2nc(-c3ccc(CCN4C5CCC4COC5)cn3)nn2CC(=O)NC(C)C)c1 [Example B-05]
Solution: 11

Exercise: # lookup: IC50 of CC(C)NC(=O)Cn1nc(-c2ccc(CCN3C4CCC3COC4)cn2)nc1-c1cccc(Cl)c1 [Example B-04]
Solution: 7.4

Exercise: # lookup: IC50 of COc1cccc(-n2c(CC(=O)NC(C)C)nn(-c3ccc(CCN4C5CCC4COC5)c(OC)c3)c2=O)c1 [Example D-42]
Solution: 7.9

a = COc1cc(-c2nc(-c3ccc(CCN4C(C)COCC4C)cc3)cn2CC(=O)NC(C)C)ccc1F (stereo not drawn) [Example A-25]
b = CC(C)NC(=O)Cc1oc(-c2ccc(CCN3CC4(COC4)C3)cc2)nc1-c1cccc(Cl)c1 [Example C-12]
c = COc1cc(-c2nc(-c3ccc(CCN4CCOCC4)cn3)nn2CC(=O)NC(C)C)ccc1F [Example B-13]
d = CC(C)NC(=O)Cc1nn(-c2ccc(CCN3CCOCC3)c(F)c2)c(=O)n1-c1cccc(Cl)c1 [Example D-20]
Exercise: Task for the reader: rank each entry by its IC50, from the minimum upward. Your answer should be the labels, listed in the requested order.
Solution: b, c, a, d
